- System: HCC-2998 colon
- METHOD_SUMMARY: NCI tumour cell line growth inhibition, 48 h
Quick list: TGI per entry.
ENDPOINT: TGI

> print(dat)
                                    compound  endpoint  observed.measurement
 1         N#CCc1nc(-c2cc3ccc(O)cc3oc2=O)cs1       TGI              > 100 µM
 2  COc1ccc(-n2nnc3c(C#N)c(C)c(-c4ccccc4)n3c2=O)cc1       TGI             > 33.2 µM
 3  NC(=S)N/N=C(/CCN1CCCC1)CC(C1=C(O)C2=CCCCC2OC1=O)c1ccccc1 (stereo not given)       TGI              > 100 µM
 4                     c1cc2nnc1SCCSCCCSCCS2       TGI              > 100 µM
 5  C#C[C@@H](OC(=O)c1ccc([N+](=O)[O-])cc1)[C@@H]1C[C@H]2O[C@@H]([C@H](C/C=C/CC)OC(=O)c3ccc([N+](=O)[O-])cc3)C[C@H]2O1       TGI              > 100 µM
 6  C[C@@H]1C[C@@H]2C(=O)N(c3ccccc3)C(=O)[C@@H]2c2[nH]c3ccc(Br)cc3c21       TGI              > 100 µM
 7     Nc1ccc(Cc2ccc(N)c(C(=O)O)c2)cc1C(=O)O       TGI              > 100 µM
 8              COc1cc(CO)cc2c1[nH]c1ccccc12       TGI               > 25 µM
 9  COC(=O)[C@H]1C2CC[C@@H]3C45C[C@@H](c6ccoc6)O[C@@H]4O[C@@H](O2)C31CCC5C (stereo not given in full)       TGI              > 100 µM
10  CN(C(=O)C12C3(C(=O)O)C4C5(C(=O)O)C3C1(C(=O)O)C5C42C(=O)O)C(C)(C)C (stereo not given)       TGI              > 100 µM
11  O=C(c1ccccc1)N1CCC(Nc2cccnc2)O1 (stereo not given)       TGI              > 100 µM
12  O=C1/C(=C\c2cccc(Oc3ccccc3)c2)SC(c2ccccc2)N1Cc1ccccc1 (stereo not given)       TGI              > 100 µM
13            CC1=C(c2ccccc2)CON(c2ccccc2)C1       TGI              > 100 µM
14    O=C(CC(=O)c1cccc2ccccc12)C(=O)Nc1nccs1       TGI              > 100 µM
15            O=c1[nH]nc(Cc2ccc(Cl)cc2)n1CCO       TGI              > 100 µM
16                   CN(C)C(=S)/N=C(\N)N(C)C       TGI              > 100 µM
17  CCOC(=O)n1ccc2c(C(=O)OC)c(C(=O)OC)cc(/C(=C/C(=O)OC)C(=O)OC)c21       TGI              > 100 µM
18      CN(CCc1ccccn1)c1ccc2c(c1)Cc1ccccc1-2       TGI              > 100 µM
19  CCSc1nc(N)c(C#N)c(-c2ccc(OC)c(OC)c2)c1C#N       TGI               > 50 µM
20                    NC(=S)NN=C1Cc2ccccc2C1       TGI              > 100 µM
21  CC/C(=N/O)C(C)C(=O)CCC(=O)Nc1ccc(Cl)cc1 (stereo not given)       TGI              > 100 µM
22  N#CC1=C(N)Oc2c(ccc3cccnc23)C1c1ccccc1 (stereo not given)       TGI              > 100 µM
23  COc1ccc(C(=O)c2cc(C)c(OC)c(C)c2)c(OC)c1OC(=O)C(Cl)Cl       TGI             > 23.6 µM
24  C=C(C)C1Cc2cc(C(C)=O)ccc2O1 (stereo not given)       TGI              > 100 µM
25                    C#CCOCn1cnc2c(N)ncnc21       TGI              > 100 µM
